Molecular target: Voltage-gated inwardly rectifying potassium channel KCNH2 (Homo sapiens) (UniProt Q12809)
Sequence (Q12809 whole entry, looked up): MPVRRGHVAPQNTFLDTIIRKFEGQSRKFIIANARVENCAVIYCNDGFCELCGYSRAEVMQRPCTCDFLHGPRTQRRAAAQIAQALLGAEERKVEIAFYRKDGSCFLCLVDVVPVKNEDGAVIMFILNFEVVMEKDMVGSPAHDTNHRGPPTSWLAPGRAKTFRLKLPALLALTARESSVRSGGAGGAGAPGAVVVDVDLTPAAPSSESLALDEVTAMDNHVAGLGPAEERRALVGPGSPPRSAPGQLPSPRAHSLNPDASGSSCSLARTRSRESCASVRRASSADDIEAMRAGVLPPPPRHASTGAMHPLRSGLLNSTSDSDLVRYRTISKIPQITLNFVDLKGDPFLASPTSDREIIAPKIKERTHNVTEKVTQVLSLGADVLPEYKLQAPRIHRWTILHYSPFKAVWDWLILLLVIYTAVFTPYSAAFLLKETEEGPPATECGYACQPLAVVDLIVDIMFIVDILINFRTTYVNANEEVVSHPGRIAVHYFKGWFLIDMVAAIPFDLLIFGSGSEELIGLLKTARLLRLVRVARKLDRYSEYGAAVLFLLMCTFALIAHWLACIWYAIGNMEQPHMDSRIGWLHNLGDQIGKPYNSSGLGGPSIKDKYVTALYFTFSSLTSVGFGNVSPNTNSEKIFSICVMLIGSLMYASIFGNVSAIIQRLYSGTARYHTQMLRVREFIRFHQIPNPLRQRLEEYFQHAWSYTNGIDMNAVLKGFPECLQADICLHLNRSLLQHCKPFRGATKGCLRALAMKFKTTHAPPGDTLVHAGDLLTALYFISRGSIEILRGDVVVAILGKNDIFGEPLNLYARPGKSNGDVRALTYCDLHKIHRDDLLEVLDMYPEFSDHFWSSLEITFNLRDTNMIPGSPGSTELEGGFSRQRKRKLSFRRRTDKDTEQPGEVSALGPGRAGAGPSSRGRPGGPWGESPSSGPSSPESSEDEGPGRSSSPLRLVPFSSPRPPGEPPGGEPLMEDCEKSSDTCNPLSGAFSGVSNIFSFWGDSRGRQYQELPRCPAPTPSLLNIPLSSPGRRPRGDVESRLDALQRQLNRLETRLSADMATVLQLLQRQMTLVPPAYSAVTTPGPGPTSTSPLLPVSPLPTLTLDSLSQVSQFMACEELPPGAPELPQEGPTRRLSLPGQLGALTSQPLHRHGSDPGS
Experiment: Human Ether-a-go-go-Related Gene (hERG) channel small molecule antagonists: fluorescence cell-based qHTS assay (AID 1671200);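 note: hERG-expressing U2OS cells given a thallium stimulus after FluxOR II dye loading; % is set by controls: 0 for no effect and ±100 for the full control effect; nearly all actives have a fitted effect of over 50% in size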
Conditions: hERG-U2OS cells, FluxOR thallium flux fluorescence; series mostly up to 76.8 µM
Records with an inconclusive call do not appear. Calls of active or inactive are those of the source. Calls come from the whole dose curve; as a rule, active = well fitted inhibition curve with a large enough effect in the repeat runs; inconclusive = weak or mixed curves; inactive = flat fitted curve, though single readings scatter.

{"compound": "C[C@H]1O[C@@H](n2cc(F)c(=O)[nH]c2=O)[C@H](O)[C@@H]1O", "assayed target": "Voltage-gated inwardly rectifying potassium channel KCNH2 (Homo sapiens) (UniProt Q12809)", "activity change, negative = inhibition": "inactive"}
{"compound": "CCCCCCOC(=O)CC(CC(=O)OCCCCCC)(OC(=O)CCC)C(=O)OCCCCCC", "assayed target": "Voltage-gated inwardly rectifying potassium channel KCNH2 (Homo sapiens) (UniProt Q12809)", "activity change, negative = inhibition": "inactive"}
{"compound": "NC(=O)Nc1nc2ccccc2[nH]1", "assayed target": "Voltage-gated inwardly rectifying potassium channel KCNH2 (Homo sapiens) (UniProt Q12809)", "activity change, negative = inhibition": "inactive"}
{"compound": "O=C(O)c1ccccc1S", "assayed target": "Voltage-gated inwardly rectifying potassium channel KCNH2 (Homo sapiens) (UniProt Q12809)", "activity change, negative = inhibition": "inactive"}
{"compound": "COC(=O)C1=C(C)NC(C)=C(C(=O)OCC(C)=O)C1c1ccccc1[N+](=O)[O-] (stereo unspecified)", "assayed target": "Voltage-gated inwardly rectifying potassium channel KCNH2 (Homo sapiens) (UniProt Q12809)", "activity change, negative = inhibition": "inactive"}
{"compound": "Cn1cnc2c(=O)[nH]c(N)nc21", "assayed target": "Voltage-gated inwardly rectifying potassium channel KCNH2 (Homo sapiens) (UniProt Q12809)", "activity change, negative = inhibition": "inactive"}

* * *

Experiment: qHTS assay to identify aromatase inhibitors - cell viability counter screen (AID 743084);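 note: cells stimulated with testosterone during compound exposure; % is set by controls: 0 for no effect and ±100 for the full control effect; nearly all actives have a fitted effect of over 55% in size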
Details: MCF-7 aro ERE viability, CellTiter-Fluor, 24 h; series mostly up to 70.3 µM
Results filed as inconclusive are left out. Calls of active or inactive are those of the source. Calls come from the whole dose curve; as a rule, active = well fitted cell-killing curve with a large enough effect in the repeat runs; inconclusive = weak or mixed curves, or effect the other way; inactive = no such curve, though single readings can be large or run the other way.

{"compound": "C#CC(O)CCCCC (stereo not given)", "activity change, negative = cytotoxicity": "inactive"}
{"compound": "CCCCCCCCCCC1CO1 (stereo not given)", "activity change, negative = cytotoxicity": "inactive"}
{"compound": "C1CCCCCCCCCCC1", "activity change, negative = cytotoxicity": "inactive"}
{"compound": "COc1cc(O)cc(O)c1", "activity change, negative = cytotoxicity": "inactive"}
{"compound": "O=C(O)c1ccc[n+]([O-])c1", "activity change, negative = cytotoxicity": "inactive"}
{"compound": "CC(C)c1cccc(O)c1", "activity change, negative = cytotoxicity": "inactive"}
{"compound": "CC1(C)SC(C)(C)SC(C)(C)S1", "activity change, negative = cytotoxicity": "inactive"}
{"compound": "C=C[Si](OC)(OC)OC", "activity change, negative = cytotoxicity": "inactive"}
{"compound": "COc1nc(C)nc(N)n1", "activity change, negative = cytotoxicity": "inactive"}
{"compound": "CO", "activity change, negative = cytotoxicity": "inactive"}
{"compound": "CC(C)(O)Cc1ccccc1", "activity change, negative = cytotoxicity": "inactive"}
{"compound": "O=C1OC(=O)c2cc([N+](=O)[O-])ccc21", "activity change, negative = cytotoxicity": "inactive"}
{"compound": "FC(F)(F)C(F)(F)C(F)(F)C(F)(F)C(F)(F)C(F)(F)C(F)(F)C(F)(F)C(F)(F)C(F)(F)F", "activity change, negative = cytotoxicity": "5.22% [at 8.47 µM] (inactive)"}
{"compound": "C=CCn1c(=O)n([C@@H]2O[C@H](CO)[C@@H](O)[C@H]2O)c2nc(N)[nH]c(=O)c21", "activity change, negative = cytotoxicity": "inactive"}
{"compound": "COC(=O)CCCC(=O)O", "activity change, negative = cytotoxicity": "inactive"}
{"compound": "CNc1ncnc2nc[nH]c12", "activity change, negative = cytotoxicity": "inactive"}
{"compound": "COc1ccc(NC(C)=O)cc1", "activity change, negative = cytotoxicity": "inactive"}
{"compound": "CCC(=O)/C=C/c1ccc(OC)cc1", "activity change, negative = cytotoxicity": "inactive"}
{"compound": "CC(=O)c1ccc(C)cc1", "activity change, negative = cytotoxicity": "inactive"}
{"compound": "c1ccc2cnncc2c1", "activity change, negative = cytotoxicity": "inactive"}
{"compound": "OC[C@H]1O[C@@H]2O[C@H]3[C@H](O)[C@@H](O)[C@@H](O[C@H]4[C@H](O)[C@@H](O)[C@@H](O[C@H]5[C@H](O)[C@@H](O)[C@@H](O[C@H]6[C@H](O)[C@@H](O)[C@@H](O[C@H]7[C@H](O)[C@@H](O)[C@@H](O[C@H]8[C@H](O)[C@@H](O)[C@@H](O[C@H]9[C@H](O)[C@@H](O)[C@@H](O[C@H]1[C@H](O)[C@H]2O)O[C@@H]9CO)O[C@@H]8CO)O[C@@H]7CO)O[C@@H]6CO)O[C@@H]5CO)O[C@@H]4CO)O[C@@H]3CO", "activity change, negative = cytotoxicity": "inactive"}
{"compound": "CC(C)(O)C(=O)c1ccc(OCCO)cc1", "activity change, negative = cytotoxicity": "inactive"}
{"compound": "CC(C)c1ccc2oc3nc(N)c(C(=O)O)cc3c(=O)c2c1", "activity change, negative = cytotoxicity": "inactive"}
{"compound": "CCCC(C)C(=O)O (stereo not given)", "activity change, negative = cytotoxicity": "inactive"}
{"compound": "CC(=O)N[C@@H](CCC(N)=O)C(=O)O", "activity change, negative = cytotoxicity": "inactive"}
